# test target: UniProtKB Q9Y6M4
# Sequence (Q9Y6M4 whole entry, looked up): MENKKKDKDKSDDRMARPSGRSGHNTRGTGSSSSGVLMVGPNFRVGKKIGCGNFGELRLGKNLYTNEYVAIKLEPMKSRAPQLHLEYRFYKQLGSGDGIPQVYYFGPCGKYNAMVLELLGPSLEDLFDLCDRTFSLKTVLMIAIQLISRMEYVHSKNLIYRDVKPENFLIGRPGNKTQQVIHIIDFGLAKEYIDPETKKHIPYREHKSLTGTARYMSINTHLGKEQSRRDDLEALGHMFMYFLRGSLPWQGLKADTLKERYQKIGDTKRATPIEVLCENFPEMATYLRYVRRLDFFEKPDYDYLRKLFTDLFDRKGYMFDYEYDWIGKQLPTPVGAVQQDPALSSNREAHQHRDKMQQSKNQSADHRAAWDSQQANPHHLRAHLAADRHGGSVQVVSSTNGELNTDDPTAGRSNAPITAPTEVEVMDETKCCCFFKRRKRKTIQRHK
# assay remarks: radiometric filter-binding kinase assay, Kinase HotSpot
# condition set: compound 0.5 µM; ATP 10 µM
As shown below, each of these compounds has a reported residual activity value.
measured endpoint: residual activity (%)

1) CN(C)CCCn1cc(C2=C(c3c[nH]c4ccccc34)C(=O)NC2=O)c2ccccc21 ... 96.9
2) O=C1C(Cl)=C(N2C(=O)CCC2=O)C(=O)c2ccccc21 ... 93.5
3) CO[C@@H]1[C@H](N(C)C(=O)c2ccccc2)C[C@H]2O[C@]1(C)n1c3ccccc3c3c4c(c5c6ccccc6n2c5c31)C(=O)NC4 ... 95.3
4) COc1ccc(S(=O)(=O)N(CCO)c2ccccc2CN(C)C/C=C/c2ccc(Cl)cc2)cc1 ... 98.3
5) O=C1NC(=O)c2c1c1c3ccccc3[nH]c1n1cncc21 ... 87
